# target_or_test_system: human recombinant integrin αvβ6 (αv extracellular domain-acidic leucine zipper-His×6 with β6 extracellular domain-basic leucine zipper) (human) (UniProt P06756)
# Sequence (P06756 other isoform, or with tags, fused parts or gaps, chain 1 of 2): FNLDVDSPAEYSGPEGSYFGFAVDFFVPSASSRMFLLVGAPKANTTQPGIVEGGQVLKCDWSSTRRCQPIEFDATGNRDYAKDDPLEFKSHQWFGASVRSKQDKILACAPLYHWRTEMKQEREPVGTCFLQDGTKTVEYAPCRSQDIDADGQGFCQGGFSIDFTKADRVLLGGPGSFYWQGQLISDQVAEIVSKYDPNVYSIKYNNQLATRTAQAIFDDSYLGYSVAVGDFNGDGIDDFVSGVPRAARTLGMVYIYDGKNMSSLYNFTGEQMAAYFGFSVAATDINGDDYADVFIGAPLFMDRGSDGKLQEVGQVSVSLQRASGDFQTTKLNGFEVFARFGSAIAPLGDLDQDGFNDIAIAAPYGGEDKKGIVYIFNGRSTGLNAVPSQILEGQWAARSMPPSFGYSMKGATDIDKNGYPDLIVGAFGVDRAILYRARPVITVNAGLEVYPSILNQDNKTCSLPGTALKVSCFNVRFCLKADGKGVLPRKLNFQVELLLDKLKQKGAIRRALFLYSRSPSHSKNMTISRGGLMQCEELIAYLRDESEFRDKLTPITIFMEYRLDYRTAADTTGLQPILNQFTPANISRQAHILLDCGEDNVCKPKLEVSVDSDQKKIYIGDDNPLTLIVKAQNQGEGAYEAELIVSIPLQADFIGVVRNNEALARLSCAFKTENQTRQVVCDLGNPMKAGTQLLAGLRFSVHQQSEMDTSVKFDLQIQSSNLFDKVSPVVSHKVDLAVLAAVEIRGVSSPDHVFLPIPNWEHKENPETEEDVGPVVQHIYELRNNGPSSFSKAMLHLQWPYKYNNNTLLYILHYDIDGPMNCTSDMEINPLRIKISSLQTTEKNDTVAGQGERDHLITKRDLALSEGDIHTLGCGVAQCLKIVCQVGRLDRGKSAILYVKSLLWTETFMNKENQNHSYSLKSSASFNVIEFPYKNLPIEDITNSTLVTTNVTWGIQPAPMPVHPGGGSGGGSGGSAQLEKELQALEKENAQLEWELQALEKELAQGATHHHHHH
# Sequence (chain, as listed by the source, chain 2 of 2): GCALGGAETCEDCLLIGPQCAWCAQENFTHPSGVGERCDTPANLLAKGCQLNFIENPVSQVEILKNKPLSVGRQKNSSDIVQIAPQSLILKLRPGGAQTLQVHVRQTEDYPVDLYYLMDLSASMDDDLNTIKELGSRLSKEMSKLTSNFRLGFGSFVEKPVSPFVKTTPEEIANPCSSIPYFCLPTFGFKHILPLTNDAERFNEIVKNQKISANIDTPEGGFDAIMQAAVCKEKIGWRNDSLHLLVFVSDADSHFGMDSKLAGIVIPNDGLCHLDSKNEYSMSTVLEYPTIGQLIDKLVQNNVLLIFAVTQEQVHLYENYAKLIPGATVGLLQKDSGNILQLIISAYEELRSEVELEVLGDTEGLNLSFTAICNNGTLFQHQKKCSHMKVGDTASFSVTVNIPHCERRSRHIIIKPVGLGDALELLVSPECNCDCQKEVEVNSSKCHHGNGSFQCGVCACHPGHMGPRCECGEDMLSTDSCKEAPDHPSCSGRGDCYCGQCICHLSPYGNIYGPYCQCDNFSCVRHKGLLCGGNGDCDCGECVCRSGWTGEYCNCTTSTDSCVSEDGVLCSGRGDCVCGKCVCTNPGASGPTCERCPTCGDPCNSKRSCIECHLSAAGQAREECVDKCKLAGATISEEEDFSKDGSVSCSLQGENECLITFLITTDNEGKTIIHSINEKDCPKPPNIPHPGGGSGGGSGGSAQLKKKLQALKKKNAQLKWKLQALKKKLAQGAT
# experiment_summary: BLI (Octet), antibody captured on anti-human IgG Fc (AHC) biosensor, integrin αvβ6 3.1-100 nM as analyte, divalent cations
readout_type: kon (M⁻¹ s⁻¹)
# unit: M⁻¹ s⁻¹ | format: bare number

[Q] For in4-Ras03 (antibody, part only; not given: RT22 heavy chain, light constant, V domains shown, not shown: another chain or arm of the molecule; a dimerising Fc or GST, chain 1: disulfide bond Cys6-Cys10 closes the in4 cyclic peptide) VL: DGVRQCRGDCFDGPLMGSSSNDIQMTQSPSSLSASVGDRVTITCKSSQSLLNSRDGKNYLAWYQQKPGKAPKLLIYWASTRESGVPSRFSGSGSGTDFTLTISSLQPEDFATYFCQQYWYWMYTFGQGTKVEIK , what is its reported kon?
[A] 583000

The origin of these recorded values is patent US20190389910A1.
